Tested on: KNS-62;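 further: inhibition of cell growth, read out with a cell viability assay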
Experiment: cells
Type: functional, cell-based, Homo sapiens
Conditions: Homo sapiens, KNS-62
Description: SANGER: Inhibition of human KNS-62 cell growth in a cell viability assay.
Catalogue of IC50 readings, one per entry.

CC(C)c1ccccc1Cc1cc(C(=O)Nc2ccc(S(=O)(=O)c3ccccc3C(C)(C)C)cc2)c(O)c(O)c1O: 559 nM

We next turn to a different compound, shown below.
Query (compound): `COc1cc2c(Nc3ccc(NC(=O)c4ccccc4)cc3)ncnc2cc1OCCCN1CCOCC1` ; field requested: IC50 > 4000 nM

====

Tested on: 647-V
Test: cells
Format: functional, cell-based, Homo sapiens
Details: Homo sapiens, 647-V
Description: SANGER: Inhibition of human 647-V cell growth in a cell viability assay.
endpoint.label: IC50

Form: Entry = `COc1cc2c(Nc3ccc(NC(=O)c4ccccc4)cc3)ncnc2cc1OCCCN1CCOCC1` | System = 647-V | IC50 = ____ > 4 µM

Queued: `Cc1cn(-c2cc(NC(=O)c3ccc(C)c(Nc4nccc(-c5cccnc5)n4)c3)cc(C(F)(F)F)c2)cn1` > 2 µM

Queued: `N#Cc1c(O)c2c(-c3ccc(-c4ccccc4O)cc3)csc2[nH]c1=O` > 1.02 µM

Queued: CC(C)CCN1c2nc(Nc3cc(F)c(O)c(F)c3)ncc2N(C)C(=O)C1C (centres undefined) > 5 µM
